Biological target: SSTR1 (Human, UniProt P30872 1-391)
Sequence (P30872 whole entry): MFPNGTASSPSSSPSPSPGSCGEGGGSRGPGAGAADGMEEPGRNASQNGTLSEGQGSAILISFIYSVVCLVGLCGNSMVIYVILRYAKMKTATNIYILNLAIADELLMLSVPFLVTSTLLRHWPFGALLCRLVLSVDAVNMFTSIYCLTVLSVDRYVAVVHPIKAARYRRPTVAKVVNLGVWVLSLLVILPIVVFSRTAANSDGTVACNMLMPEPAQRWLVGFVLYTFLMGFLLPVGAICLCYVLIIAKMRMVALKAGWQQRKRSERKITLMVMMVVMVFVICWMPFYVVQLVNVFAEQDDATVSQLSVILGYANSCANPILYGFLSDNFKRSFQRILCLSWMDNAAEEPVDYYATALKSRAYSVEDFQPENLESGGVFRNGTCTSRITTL
Assay: radioligand competition, membranes

{"columns": ["BINDER", "Ki / µM"],
 "data": [
  ["CCCRKAGCKNFFWKTFTSC (three N-terminal Cys each with a disialo sugar chain (Cys-Cys-Cys-Arg-Lys- added to SRIF14); disulfide Cys17-Cys28 (SRIF28 numbering)) [3C(disialo)-R-K-SRIF14]", 0.27]
]}
